system: L1210; experiment: Cytotoxicity against mouse L1210 ATCC CCL 219 cells after 48 hrs by MTT assay; format: functional, cell-based; settings: L1210, 48 h
pIC50: −log10 of the molar value.

{"columns": ["compound", "measurement.target", "limit.qualifier", "pIC50"],
 "data": [
  ["CC(=O)c1c(O)c(C)c(O)c2c1OC1=CC(=O)/C(=C(/C)NCCCCCCCCN)C(=O)[C@@]12C", "L1210", "=", 5.57],
  ["CC(=O)c1c(O)c(C)c(O)c2c1OC1=CC(=O)/C(=C(/C)NCCCNCCCCN)C(=O)[C@@]12C", "L1210", "=", 5.08],
  ["CCOC(=O)[C@H](Cc1ccccc1)N/C(C)=C1\\C(=O)C=C2Oc3c(C(C)=O)c(O)c(C)c(O)c3[C@@]2(C)C1=O", "L1210", "=", 4.13],
  ["CC(=O)c1c(O)c(C)c(O)c2c1OC1=CC(=O)/C(=C(/C)NCCCCO)C(=O)[C@@]12C", "L1210", "=", 4.70],
  ["CC(=O)C1=C(O)C=C2Oc3c(C(C)=O)c(O)c(C)c(O)c3C2(C)C1=O (single isomer, unassigned) [(-)-USNIC ACID]", "L1210", "=", 4.76],
  ["CC[C@H](C)[C@H](N/C(C)=C1\\C(=O)C=C2Oc3c(C(C)=O)c(O)c(C)c(O)c3[C@@]2(C)C1=O)C(=O)O", "L1210", "=", 4.76],
  ["NCCCCCCCCN", "L1210", "<", 4.00],
  ["CC(=O)C1=C(O)C=C2Oc3c(C(C)=O)c(O)c(C)c(O)c3[C@@]2(C)C1=O [(+)-USNIC ACID]", "L1210", "=", 4.58]
]}
